Where do the numbers come from? From patent US20190031676A1.

- Tested on: P. aeruginosa ATCC27853
- method-summary: Bacterial growth minimal inhibitory concentration (microdilution, cation-adjusted Mueller-Hinton Broth)
- Type: cell-based
- condition-notes: Pseudomonas aeruginosa, ATCC27853; quinolone-sensitive strain
measured-endpoint: MIC (µg/mL)
Field format: number, assumed µg/mL, no unit text.

Entry C[C@@](CCN1Cc2cc(C#CC#C[C@H]3C[C@@H]3CO)sc2C1=O)(C(=O)NO)S(C)(=O)=O : reported MIC = ?
0.5

// next record C[C@@](CCN1Cc2cc(C#CC#CCOC(=O)N3CC(O)C3)ccc2C1=O)(C(=O)NO)S(C)(=O)=O
2

// next record C[C@@](CCN1Cc2cc(C#Cc3ccc(CN4CC(F)C4)cc3)sc2C1=O)(C(=O)NO)S(C)(=O)=O
2

// next record C[C@@](CCN1Cc2cc(C#CC#C[C@H]3C[C@@H]3CN3CC(F)C3)sc2C1=O)(C(=O)NO)S(C)(=O)=O
2

// next record CN1C[C@@H](C#CC#Cc2cc3c(s2)C(=O)N(CC[C@](C)(C(=O)NO)S(C)(=O)=O)C3)[C@@H]1CO
1

// next record C[C@@](CCN1Cc2cc(C#CC#C[C@@H]3C[C@H]3CO)sc2C1=O)(C(=O)NO)S(C)(=O)=O (single isomer, unassigned)
0.5

// next record C[C@@](CCN1Cc2cc(C#CC#CC3(N)CC3)ccc2C1=O)(C(=O)NO)S(C)(=O)=O
1

// next record C[C@@](CCN1Cc2cc(C#CC#CC3CN([C@H]4CCOC4)C3)sc2C1=O)(C(=O)NO)S(C)(=O)=O (single isomer, unassigned)
1

// next record CNC1(C#CC#Cc2ccc3c(c2)CN(CC[C@](C)(C(=O)NO)S(C)(=O)=O)C3=O)CC1
2

// next record C[C@@](CCN1Cc2cc(C#CC#CCOC(=O)N3CC(O)C3)sc2C1=O)(C(=O)NO)S(C)(=O)=O
2

// next record C[C@@](CCN1Cc2cc(C#CC#C[C@H]3C[C@]3(F)CO)ccc2C1=O)(C(=O)NO)S(C)(=O)=O
1

// next record C[C@@](CCN1Cc2cc(C#CC#CC3(CO)CC3)ccc2C1=O)(C(=O)NO)S(C)(=O)=O
2

// next record C[C@@](CCN1Cc2cc(C#CC#CC3CN([C@@H]4CCOC4)C3)sc2C1=O)(C(=O)NO)S(C)(=O)=O (single isomer, unassigned)
1

// next record C[C@@](CCN1Cc2cc(C#CC#CC3CN(CCF)C3)sc2C1=O)(C(=O)NO)S(C)(=O)=O
1
